# System: Es-2
# PROTOCOL: Primary qHTS to identify gynecologic anti-cancer compounds using libraries of approved drugs and bioactive compounds (AID 1345084); further: nearly all actives have a fitted effect of over 55% in size
# CONDITION PARAMETERS: Gynecologic cancer cell panel viability, ATPlite luminescence, 48 h; series mostly up to 57.5 µM
Results filed as inconclusive are left out. Active and inactive are the calls of the source. The call rests on the fitted dose curve; in most records, active means well fitted cell-killing curve with a large enough effect; inconclusive means small, poorly fitted or top-dose-only effect, or effect the other way; inactive means flat fitted curve, though single readings scatter.
The reply should be one of these categories: Yes (active), No (inactive)

# count of solved cases: 5
• COc1ccc(C2CNC(=O)C2)cc1OC1CCCC1 (stereo unspecified) = No
• COC(=O)Nc1nc2ccc(C(=O)c3cccs3)cc2[nH]1 = Yes
• Nc1nnc(-c2cccc(Cl)c2Cl)c(N)n1 = No
• CC(=O)OCC(CCn1cnc2cnc(N)nc21)COC(C)=O = No
• CN(C)CCOC(c1ccccc1)c1ccccc1 = No

Now turn to the next compound.
Field: outcome | Entry: O=C(c1ccc(F)cc1)C1CCN(CCn2c(=O)[nH]c3ccccc3c2=O)CC1 No

====

# PROTOCOL: qHTS drug screen for cell cycle checkpoint inhibitors in PARPi-resistant BRCA-mutant ovarian cancer cell lines. (AID 1963452)
# CONDITION PARAMETERS: PEO1/OlaR viability, CellTiter-Glo luminescence, 96 h; stronger effect = lower value
Calls of active or inactive are those of the source. The call rests on the fitted dose curve.
QUANTITY MEASURED: Z-AUC

For orientation, consider the following solved cases.
• C[C@@H]1CC(=O)NN=C1c1ccc(NN=C(C#N)C#N)cc1 = 0.769 (inactive)
• CN1CCC(=C2c3ccccc3CC(=O)c3sccc32)CC1 = 1.25 (inactive)
• CS(=O)(=O)CCNCc1ccc(-c2ccc3ncnc(Nc4ccc(OCc5cccc(F)c5)c(Cl)c4)c3c2)o1 = 0.292 (inactive)

Below: the item to evaluate.
Quote Z-AUC reported for CC(COc1ccccc1)N(CCCl)Cc1ccccc1 (stereo not given) please. 1.41 (inactive)

====

# PROTOCOL: NFAT Signaling Pathway (AID 444);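 further: carbachol stimulus at about its EC50 of 1 µM final; on the % scale 0 is the no-effect control and ±100 the full control effect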
# CONDITION PARAMETERS: Jurkat NFAT-bla M1, carbachol, beta-lactamase ratio, 5 h; at 38 µM (top of the series)
# Protocol: NCGC Assay Overview: The nuclear factor of activated T cells (NFAT) family of transcription factors has been found primarily in most immune system cells and some other non-immune cells. NFAT plays the immunomodulatory role, primarily in T-cell activation and differentiation. […] NCGC Assay Protocol Summary: The cells were prepared in RPMI 1640 medium containing 0.1% dialyzed FBS and 25 mM HEPES at 1.6 x 10^6cell/ml. […] The %Activity was determined from the ratio of 460nm/530nm. […]
Inconclusive results are not listed.
QUANTITY MEASURED: activity change, negative = inhibition (%)
Write the answer as a number in %, unit excluded.

Below: 8 compounds and their reported activity change, negative = inhibition.
* CN1C(C(=O)Nc2ccccn2)=C(O)c2ccccc2S1(=O)=O | -8.1
* CCOC(=O)Nc1ccc(NCc2ccc(F)cc2)nc1N | -3.88
* CC[N+](CC)(CC)CCOc1cccc(OCC[N+](CC)(CC)CC)c1OCC[N+](CC)(CC)CC | -22
* NC12CC3CC(CC(C3)C1)C2 | -1.81
* Nc1nnc(-c2cccc(Cl)c2Cl)c(N)n1 | 15.4
* Cc1ccc(C(=O)Nc2ccc(S(=O)(=O)O)c3cc(S(=O)(=O)O)cc(S(=O)(=O)O)c23)cc1NC(=O)c1cccc(NC(=O)Nc2cccc(C(=O)Nc3cc(C(=O)Nc4ccc(S(=O)(=O)O)c5cc(S(=O)(=O)O)cc(S(=O)(=O)O)c45)ccc3C)c2)c1 | -19.8
* COc1ccc2c(c1)c(CC(=O)O)c(C)n2C(=O)c1ccc(Cl)cc1 | 8.92
* Cc1cnc(C(=O)NCCc2ccc(S(=O)(=O)NC(=O)NC3CCCCC3)cc2)cn1 | -4.17

For the compound O=C(CCCN1CCC(O)(c2ccc(Cl)cc2)CC1)c1ccc(F)cc1 , give its measured activity change, negative = inhibition value. -17.8

Return the recorded activity change, negative = inhibition value; entry: CC(C)C(=O)Nc1ccc([N+](=O)[O-])c(C(F)(F)F)c1 9.16

For the compound O=C1N(c2ccccc2)c2ccccc2C1(Cc1ccncc1)Cc1ccncc1 , report activity change, negative = inhibition. -6.55

Return activity change, negative = inhibition (reported value) for this compound: COc1nc(C)nc(Cl)c1NC1=NCCN1 10.4

Give me measured activity change, negative = inhibition, please, for this compound: OCCN(CCO)c1nc(N2CCCCC2)c2nc(N(CCO)CCO)nc(N3CCCCC3)c2n1 -0.6

Hello, please tell me recorded activity change, negative = inhibition for this one: NC(=O)OCC(COC(N)=O)c1ccccc1 8.56

Consider the compound CCOC(=O)c1ncn2c1CN(C)C(=O)c1cc(F)ccc1-2 and give its recorded activity change, negative = inhibition. -1.55

Using known records, supply activity change, negative = inhibition for N[C@@H](Cc1c[nH]c2ccc(O)cc12)C(=O)O -5.52

Note activity change, negative = inhibition for the compound shown: Cn1c(=O)c2[nH]cnc2n(C)c1=O 8.38
